Just for reference, paper PMC5469796 is where these values come from.

Record form. Attribute: Kd. Fill in for each entry.
# EXPERIMENTAL SYSTEM: PKR full length (UniProt P19525 1-551)
# Sequence (P19525 whole entry): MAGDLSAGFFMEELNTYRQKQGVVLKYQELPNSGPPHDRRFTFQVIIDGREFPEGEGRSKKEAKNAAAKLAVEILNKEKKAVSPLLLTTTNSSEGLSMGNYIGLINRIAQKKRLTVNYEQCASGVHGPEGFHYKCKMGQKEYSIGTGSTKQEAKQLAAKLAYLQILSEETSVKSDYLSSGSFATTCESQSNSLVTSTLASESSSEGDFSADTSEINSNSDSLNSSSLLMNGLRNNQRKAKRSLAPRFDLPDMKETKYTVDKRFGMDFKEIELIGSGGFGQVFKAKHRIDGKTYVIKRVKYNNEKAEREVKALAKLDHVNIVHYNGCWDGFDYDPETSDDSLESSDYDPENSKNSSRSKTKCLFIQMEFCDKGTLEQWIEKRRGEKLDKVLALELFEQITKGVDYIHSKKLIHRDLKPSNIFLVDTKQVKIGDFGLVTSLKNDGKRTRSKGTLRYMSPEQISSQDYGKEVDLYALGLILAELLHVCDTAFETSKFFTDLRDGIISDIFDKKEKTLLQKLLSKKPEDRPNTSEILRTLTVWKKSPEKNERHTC
# PROCEDURE TEXT: sedimentation velocity AUC; Kd1, sequential 2:1; AU75: 75 mM HEPES pH 7.5, 75 mM NaCl, 0.1 mM EDTA, 0.1 mM TCEP, 20 °C, 50,000 rpm, 260 nm; errors are confidence intervals (95% joint stated for Table 2); crosslinking in AU75 + 10 mM EDTA, 0.5 µM RNA, 1 µM protein, on ice before UV
# CONDITION PARAMETERS: protein: recombinant; chain copies: 2; weak predicted secondary structure
Show the value, then the unit it is measured in.

Hey, can you go through the list below and give me Kd for every item?
1. GGAGAACUUAAUGCCGGAGACCAAAGACUU (ssRNA, 5'-OH) [Het30]
2. GGAGAACUUAAUGCCGGAGACCAAAGACUU (ssRNA, 5'-triphosphate) [ppp-Het30]

1. 1.07 µM
2. 0.825 µM
